In this section, each of the compounds is paired with its reported IC50.
- Tested on: E. histolytica HM1: IMSS
- ASSAY TEXT: Trophozoite viability IC50 determination, Amebae assay (ATPLite)
- Type: cell-based
- EXPERIMENTAL CONTEXT: Entamoeba histolytica, 72 h, read-out: Cell viability values Mean IC50 (nM) E. histolytica HM1: IMSS

COMPOUND	IC50
CO[C@@H]1[C@H](OC(=O)NCCB(O)O)CC[C@]2(CO2)[C@H]1[C@@]1(C)O[C@@H]1CC=C(C)C	101 to 1000 nM
CO[C@@H]1[C@H](OC(=O)NC(CF)c2ccc(B(O)O)cc2)CC[C@]2(CO2)[C@H]1[C@@]1(C)O[C@@H]1CC=C(C)C (stereo partly shown)	> 1000 nM
CO[C@@H]1[C@H](OC(=O)N2CCOc3c(B(O)O)cccc32)CC[C@]2(CO2)[C@H]1[C@@]1(C)O[C@@H]1CC=C(C)C	101 to 1000 nM
COC1C(OC(=O)N2CCC(n3cc(B(O)O)cn3)CC2)CCC2(CO2)C1C1(C)OC1CC=C(C)C (stereo not shown)	> 1000 nM
CO[C@@H]1[C@H](OC(=O)Nc2cc(B(O)O)ccc2Cl)CC[C@]2(CO2)[C@H]1[C@@]1(C)O[C@@H]1CC=C(C)C	101 to 1000 nM
CO[C@@H]1[C@H](OC(=O)NCc2c(F)cc(B(O)O)cc2F)CC[C@]2(CO2)[C@H]1[C@@]1(C)O[C@@H]1CC=C(C)C	> 1000 nM
CO[C@@H]1[C@H](OC(=O)Nc2ccc3c(c2)C(C)(C)OB3O)CC[C@]2(CO2)[C@H]1[C@@]1(C)O[C@@H]1CC=C(C)C	< 10 nM

====

Property: IC50; scope: individual compounds
- Tested on: E. histolytica HM1: IMSS
- ASSAY TEXT: Trophozoite viability IC50 determination, Amebae assay (ATPLite)
- Type: cell-based
- EXPERIMENTAL CONTEXT: Entamoeba histolytica, 72 h, read-out: Cell viability values Mean IC50 (nM) E. histolytica HM1: IMSS
RECORDED ENDPOINT: IC50

COMPOUND	RECORDED ENDPOINT	TEST VALUE
CO[C@@H]1[C@H](OC(=O)Nc2cccc(B(O)O)c2Cl)CC[C@]2(CO2)[C@H]1[C@@]1(C)O[C@@H]1CC=C(C)C	IC50	> 1000 nM
CO[C@@H]1[C@H](OC(=O)N2CCCC2B(O)O)CC[C@]2(CO2)[C@H]1[C@@]1(C)O[C@@H]1CC=C(C)C (stereo partly drawn)	IC50	> 1000 nM
COC1C(OC(=O)NCCn2cc(B(O)O)cn2)CCC2(CO2)C1C1(C)OC1CC=C(C)C (stereo not drawn)	IC50	> 1000 nM
CO[C@@H]1[C@H](OC(=O)Nc2ccc3c(c2)B(O)OCC3)CC[C@]2(CO2)[C@H]1[C@@]1(C)O[C@@H]1CC=C(C)C	IC50	101 to 1000 nM
COC1C(OC(=O)NCc2cncc(B(O)O)c2)CCC2(CO2)C1C1(C)OC1CC=C(C)C (stereo not drawn)	IC50	> 1000 nM
CO[C@@H]1[C@H](OC(=O)Nc2ccc3c(c2)CCOB3O)CC[C@]2(CO2)[C@H]1[C@@]1(C)O[C@@H]1CC=C(C)C	IC50	101 to 1000 nM
CO[C@@H]1[C@H](OC(=O)N(C)c2cc(B(O)O)c3occc3c2)CC[C@]2(CO2)[C@H]1[C@@]1(C)O[C@@H]1CC=C(C)C	IC50	> 1000 nM
COC1C(OC(=O)N2CC(B(O)O)Cn3ccnc32)CCC2(CO2)C1C1(C)OC1CC=C(C)C (stereo not drawn)	IC50	> 1000 nM
CO[C@@H]1[C@H](OC(=O)N[C@@H](CC(C)C)B(O)O)CC[C@]2(CO2)[C@H]1[C@@]1(C)O[C@@H]1CC=C(C)C	IC50	101 to 1000 nM
CO[C@@H]1[C@H](OC(=O)NCc2cc(F)ccc2B(O)O)CC[C@]2(CO2)[C@H]1[C@@]1(C)O[C@@H]1CC=C(C)C	IC50	> 1000 nM
CO[C@@H]1[C@H](OC(=O)Nc2cc(Cl)c3c(c2)B(O)OC3)CC[C@]2(CO2)[C@H]1[C@@]1(C)O[C@@H]1CC=C(C)C	IC50	10.1 to 100 nM
CO[C@@H]1[C@H](OC(=O)Nc2cc(C#N)cc(B(O)O)c2)CC[C@]2(CO2)[C@H]1[C@@]1(C)O[C@@H]1CC=C(C)C	IC50	> 1000 nM
CO[C@@H]1[C@H](OC(=O)Nc2ccc3c(c2)B(O)OC3)CC[C@]2(CO2)[C@H]1[C@@]1(C)O[C@@H]1CC=C(C)C	IC50	10.1 to 100 nM
CO[C@@H]1[C@H](OC(=O)Nc2csc(B(O)O)c2)CC[C@]2(CO2)[C@H]1[C@@]1(C)O[C@@H]1CC=C(C)C	IC50	> 1000 nM
COC1C(OC(=O)NCc2cc(C#N)cc(B(O)O)c2)CCC2(CO2)C1C1(C)OC1CC=C(C)C (stereo not drawn)	IC50	> 1000 nM
CO[C@@H]1[C@H](OC(=O)Nc2cc(B(O)O)cc(C(=O)O)c2)CC[C@]2(CO2)[C@H]1[C@@]1(C)O[C@@H]1CC=C(C)C	IC50	101 to 1000 nM
CO[C@@H]1[C@H](OC(=O)N2CCc3cc(B(O)O)ccc32)CC[C@]2(CO2)[C@H]1[C@@]1(C)O[C@@H]1CC=C(C)C	IC50	> 1000 nM
CO[C@@H]1[C@H](OC(=O)NCc2ccc(B(O)O)cc2)CC[C@]2(CO2)[C@H]1[C@@]1(C)O[C@@H]1CC=C(C)C	IC50	101 to 1000 nM
CO[C@@H]1[C@H](OC(=O)N(C)c2ccc3c(c2)CCOB3O)CC[C@]2(CO2)[C@H]1[C@@]1(C)O[C@@H]1CC=C(C)C	IC50	101 to 1000 nM
CO[C@@H]1[C@H](OC(=O)N[C@H](CC(C)C)B(O)O)CC[C@]2(CO2)[C@H]1[C@@]1(C)O[C@@H]1CC=C(C)C	IC50	> 1000 nM
CO[C@@H]1[C@H](OC(=O)Nc2cc(B(O)O)c3occc3c2)CC[C@]2(CO2)[C@H]1[C@@]1(C)O[C@@H]1CC=C(C)C	IC50	> 1000 nM
CO[C@@H]1[C@H](OC(=O)Nc2ccc3sc(B(O)O)cc3c2)CC[C@]2(CO2)[C@H]1[C@@]1(C)O[C@@H]1CC=C(C)C	IC50	> 1000 nM
CO[C@@H]1[C@H](OC(=O)N2CCc3cc(B(O)O)ccc3C2)CC[C@]2(CO2)[C@H]1[C@@]1(C)O[C@@H]1CC=C(C)C	IC50	> 1000 nM
CO[C@@H]1[C@H](OC(=O)N[C@@H](C)B(O)O)CC[C@]2(CO2)[C@H]1[C@@]1(C)O[C@@H]1CC=C(C)C	IC50	> 1000 nM
CO[C@@H]1[C@H](OC(=O)N2CC=C(B(O)O)CC2)CC[C@]2(CO2)[C@H]1[C@@]1(C)O[C@@H]1CC=C(C)C	IC50	> 1000 nM
CO[C@@H]1[C@H](OC(=O)N2CCc3cc(B(O)O)cnc3C2)CC[C@]2(CO2)[C@H]1[C@@]1(C)O[C@@H]1CC=C(C)C	IC50	> 1000 nM
CO[C@@H]1[C@H](OC(=O)Nc2ccccc2B(O)O)CC[C@]2(CO2)[C@H]1[C@@]1(C)O[C@@H]1CC=C(C)C	IC50	101 to 1000 nM

====

- System: E. histolytica HM1: IMSS
- ASSAY TEXT: Trophozoite viability IC50 determination, Amebae assay (ATPLite)
- Type: cell-based
- EXPERIMENTAL CONTEXT: Entamoeba histolytica, 72 h, read-out: Cell viability values Mean IC50 (nM) E. histolytica HM1: IMSS
Measured IC50, listed per entry for reference.
RECORDED ENDPOINT: IC50

MOLECULE	ASSAYED TARGET	TEST VALUE
COc1nsc(CNC(=O)OC2CCC3(CO3)C(C3(C)OC3CC=C(C)C)C2OC)c1B(O)O (stereo not shown)	E. histolytica HM1: IMSS	> 1000 nM
CO[C@@H]1[C@H](OC(=O)NCc2ccc(B(O)O)o2)CC[C@]2(CO2)[C@H]1[C@@]1(C)O[C@@H]1CC=C(C)C	E. histolytica HM1: IMSS	> 1000 nM
COC1C(OC(=O)N2CCOc3c(B(O)O)cncc32)CCC2(CO2)C1C1(C)OC1CC=C(C)C (stereo not shown)	E. histolytica HM1: IMSS	> 1000 nM
CO[C@@H]1[C@H](OC(=O)Nc2cccc(B(O)O)c2)CC[C@]2(CO2)[C@H]1[C@@]1(C)O[C@@H]1CC=C(C)C	E. histolytica HM1: IMSS	101 to 1000 nM
CO[C@@H]1[C@H](OC(=O)N2CCC(B(O)O)CC2)CC[C@]2(CO2)[C@H]1[C@@]1(C)O[C@@H]1CC=C(C)C	E. histolytica HM1: IMSS	> 1000 nM
CO[C@@H]1[C@H](OC(=O)NCc2cccc(B(O)O)c2)CC[C@]2(CO2)[C@H]1[C@@]1(C)O[C@@H]1CC=C(C)C	E. histolytica HM1: IMSS	101 to 1000 nM
CO[C@@H]1[C@H](OC(=O)Nc2cc(B(O)O)cc(F)n2)CC[C@]2(CO2)[C@H]1[C@@]1(C)O[C@@H]1CC=C(C)C	E. histolytica HM1: IMSS	> 1000 nM
